Entries annotated with measured EC50
Molecular target: Pyroglutamylated RF-amide peptide receptor (Homo sapiens)
Sequence (Q96P65 whole entry): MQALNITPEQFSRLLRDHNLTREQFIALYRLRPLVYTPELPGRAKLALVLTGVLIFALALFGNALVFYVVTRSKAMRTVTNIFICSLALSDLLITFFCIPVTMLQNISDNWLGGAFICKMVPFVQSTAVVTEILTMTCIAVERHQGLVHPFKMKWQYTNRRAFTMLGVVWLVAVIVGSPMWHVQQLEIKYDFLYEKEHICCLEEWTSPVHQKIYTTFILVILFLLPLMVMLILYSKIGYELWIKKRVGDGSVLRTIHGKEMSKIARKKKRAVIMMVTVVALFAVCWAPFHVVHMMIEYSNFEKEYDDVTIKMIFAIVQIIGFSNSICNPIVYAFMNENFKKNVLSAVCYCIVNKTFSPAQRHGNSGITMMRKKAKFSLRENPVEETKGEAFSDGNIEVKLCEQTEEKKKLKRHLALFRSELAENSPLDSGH
Experiment: Agonist activity at human QRFPR expressed in CHO cells co-expressing Galpha16 assessed as increase Ca2+ mobilization after 3 mins by Fluo-4 AM-based scanning fluorometery
Type: functional, cell-based
Starred links: 1 amine or outer side, 2 acyl side, 3 side chain; linkers in the order of their positions; H or OH if unused. Non-standard residues stand in square brackets, D forms with d. Residues, ends and D or L forms follow the SMILES beside them. X16 = CC(C)CNC(=N)NCCC[C@H](N[*:1])C(=O)[*:2]; X18 = C/N=C(/NCC[C@H](N[*:1])C(=O)[*:2])N(C)C; X17 = CC(C)CNC(=N)NCC[C@H](N[*:1])C(=O)[*:2]; X19 = C/N=C(\NC)NCCCC[C@H](N[*:1])C(=O)[*:2]; X2 = CCN(C)C(=N)NCCCC[C@H](N[*:1])C(=O)[*:2]; X8 = CCN(CC)C(=N)NCCC[C@H](N[*:1])C(=O)[*:2]; X9 = N=C(NCC[C@H](N[*:1])C(=O)[*:2])N1CCC1; hArg = N=C(N)NCCCC[C@H](N)C(=O)O

Here's what some known entries look like.
### Prompt Looking for the measured EC50 of CCN(CC)C(=N)NCCC[C@H](NC(=O)[C@H](Cc1ccccc1)NC(=O)[C@H](CO)NC(=O)[C@H](Cc1ccccc1)NC(=O)CNC(=O)CN)C(=O)N[C@@H](Cc1ccccc1)C(N)=O (H-GGFSF[X8]F-NH2) , can you help?
### Response > 100 µM

### Prompt CCN(C)C(=N)NCCCC[C@H](NC(=O)[C@H](Cc1ccccc1)NC(=O)[C@H](CO)NC(=O)[C@H](Cc1ccccc1)NC(=O)CNC(=O)CN)C(=O)N[C@@H](Cc1ccccc1)C(N)=O (H-GGFSF[X2]F-NH2) ?
### Response > 100 µM

### Prompt What about C/N=C(/NCC[C@H](NC(=O)[C@H](Cc1ccccc1)NC(=O)[C@H](CO)NC(=O)[C@H](Cc1ccccc1)NC(=O)CNC(=O)CN)C(=O)N[C@@H](Cc1ccccc1)C(N)=O)N(C)C (H-GGFSF[X18]F-NH2) ?
### Response > 100 µM

### Prompt And then C/N=C(\NC)NCCCC[C@H](NC(=O)[C@H](Cc1ccccc1)NC(=O)[C@H](CO)NC(=O)[C@H](Cc1ccccc1)NC(=O)CNC(=O)CN)C(=O)N[C@@H](Cc1ccccc1)C(N)=O (H-GGFSF[X19]F-NH2) , what is it?
### Response > 100 µM

### Prompt What do we get for N=C(N)NCCCC[C@H](NC(=O)[C@H](Cc1ccccc1)NC(=O)[C@H](CO)NC(=O)[C@H](Cc1ccccc1)NC(=O)CNC(=O)CN)C(=O)N[C@@H](Cc1ccccc1)C(N)=O (H-GGFSF[hArg]F-NH2) ?
### Response 1.91 µM

### Prompt Same question, N=C(NCC[C@H](NC(=O)[C@H](Cc1ccccc1)NC(=O)[C@H](CO)NC(=O)[C@H](Cc1ccccc1)NC(=O)CNC(=O)CN)C(=O)N[C@@H](Cc1ccccc1)C(N)=O)N1CCC1 (H-GGFSF[X9]F-NH2) this time
### Response > 100 µM

### Prompt Same for CC(C)CNC(=N)NCCC[C@H](NC(=O)[C@H](Cc1ccccc1)NC(=O)[C@H](CO)NC(=O)[C@H](Cc1ccccc1)NC(=O)CNC(=O)CN)C(=O)N[C@@H](Cc1ccccc1)C(N)=O (H-GGFSF[X16]F-NH2)
### Response 1.5 µM

# input for lookup
### Prompt Fill in the blank: the reported EC50 of CC(C)CNC(=N)NCC[C@H](NC(=O)[C@H](Cc1ccccc1)NC(=O)[C@H](CO)NC(=O)[C@H](Cc1ccccc1)NC(=O)CNC(=O)CN)C(=O)N[C@@H](Cc1ccccc1)C(N)=O (H-GGFSF[X17]F-NH2) is ____.
### Response > 100 µM
